target: T1, Human TfR-AVI-His (control) (human, UniProt P02786 89-760); assay: ELISA, hybridoma supernatant
T1 construct: control protein; also called Avi-His-tagged human TfR; human transferrin receptor
T1 sequence (P02786 89-760 limits assumed): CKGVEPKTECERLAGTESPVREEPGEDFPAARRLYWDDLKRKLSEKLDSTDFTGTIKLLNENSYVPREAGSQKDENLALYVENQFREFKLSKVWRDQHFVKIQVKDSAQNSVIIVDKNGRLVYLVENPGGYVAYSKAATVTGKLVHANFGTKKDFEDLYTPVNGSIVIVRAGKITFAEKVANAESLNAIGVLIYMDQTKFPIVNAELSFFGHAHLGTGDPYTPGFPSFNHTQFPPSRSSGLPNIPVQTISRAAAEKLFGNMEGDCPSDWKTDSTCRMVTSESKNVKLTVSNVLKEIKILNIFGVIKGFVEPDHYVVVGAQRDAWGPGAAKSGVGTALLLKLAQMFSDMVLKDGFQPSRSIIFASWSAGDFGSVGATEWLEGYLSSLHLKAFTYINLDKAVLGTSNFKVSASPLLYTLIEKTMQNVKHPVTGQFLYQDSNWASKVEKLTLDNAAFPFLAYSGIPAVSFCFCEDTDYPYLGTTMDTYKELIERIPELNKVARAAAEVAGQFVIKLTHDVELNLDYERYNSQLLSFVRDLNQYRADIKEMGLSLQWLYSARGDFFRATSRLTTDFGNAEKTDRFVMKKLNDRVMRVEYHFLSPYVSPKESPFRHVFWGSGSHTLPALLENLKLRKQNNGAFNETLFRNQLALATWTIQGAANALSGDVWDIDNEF
quantity kind: OD450
Just the number, please, no unit after it.

CD98HC.04.063 (antibody, V domains shown, hybridoma IgG) VH: EVKLEESGGGLVQPGGSMILSCVASGFTFSNSWMNWVRQSPEKGLEWVAEIRLRSNNYATHYAESVKGRFTISRDDSKSTVYLQMNNLRAEDTGIYYCSRGDPGAYWGQGTLVTVSA VL: DIQMTQSSSYLSVSLGNRVTITCKASDHIKNWLAWFQQKPGNAPRLLISGATILETGVPSRFSGSGSGKDYTLSITSLQTEDVATYYCQQYWSTPYTFGGGTKLEIK
0.0629
CD98HC.04.003 (antibody, V domains shown, hybridoma IgG) VH: QVQLQQSGAELAKPGASLKMSCKASGYTFTDYYIHWVKQRPGQDLEWIGYINPNSAYTDSNQKFKDKATLTADKSSNTAYMQLSSLTSEDSAVYYCARKGHFYAPSFAYWGQGTLVTVSA VL: DIQMTQTTSSLSASLGDRVTISCRASQDISNYLNWYQQKPDGTVKLLIYYTSRLHSGVPSRFSGSGSGADYSLTISNLQQEDIATYFCQQGDTLPYTFGGGTKLEIE
0.0601

Incoming: Endpoint output: OD450 of CD98HC.03.031 (antibody, V domains shown, hybridoma IgG) VH: QVQLQQSGAELVRPGVSVKISCKASGYTFTDYAMHWVKQSHAKSLEWIGVISTYYGDTTYNQKFKDKATMTVDKSSSTAYLELARLTSEDSAIYYCARVWLLSYAMDNWGQGTSVTVSS VL: DIVMTQSQRFMSTSVGDGVRITCKASQNVRTAVAWYQQKPGQSPKALINLAPNRHTGVPDRFTARGSGTDFTLTISNVQSEDLADYFCLQHWNYPLTFGAGTKLELK . Value?
Outgoing: 0.0873

Data origin, for the record: patent US20250270341A1
